test-details: chemical genetic growth profiling, strain panel (AID 1159580);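 further: tested at 20 µM; growth read once vehicle control cultures reached saturation at 30 °C; 1 = growth at the plate median or of vehicle wells; lower values mean less growth of the strain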
experimental-context: S. cerevisiae deletion strains, growth OD, locus YCL069W, strain vba3
Out of some 5,500 compounds screened, about 2,000 (36%) were called active. Roughly 18% stayed inconclusive and do not appear here. No stated cut-off is given here; in the data, active means normalized growth mostly below about 0.91 (no sharp cut-off); inconclusive means no clear call, values can overlap the other calls; inactive means mostly above about 0.92. The list shows a part of the results.
Outcomes: 1.0 = active, 0.0 = inactive

| compound | discrete-label |
| --- | --- |
| CC(=CC1CCC(C)C2C1=C(C)CC2O)C(=O)O (stereo not drawn) | 0.0 |
| O=c1c(O)c(-c2ccccc2)oc2cc(O)ccc12 | 1.0 |
| O=C1NS(=O)(=O)c2ccccc21 | 0.0 |
| CC[C@H]1OC(=O)[C@H](C)[C@@H](O[C@H]2C[C@@](C)(OC)[C@@H](O)[C@H](C)O2)[C@H](C)[C@@H](O[C@@H]2O[C@H](C)C[C@H](N(C)C)[C@H]2O)[C@](C)(O)C[C@@H](C)/C(=N/OCOCCOC)[C@H](C)[C@@H](O)[C@]1(C)O | 0.0 |
| CCCc1ncc(C[n+]2ccccc2C)c(N)n1 | 0.0 |
| CC(=O)c1c(O)cc(O)cc1O | 0.0 |
| CC(=CC1CCC(C)C2CCC(C)=C12)C(=O)O (stereo not drawn) | 0.0 |
| O=c1c(O)c(-c2ccccc2)oc2ccc3occc3c12 | 1.0 |
| CNC(C)(C)Cc1ccccc1 | 0.0 |
| CNC(=O)Oc1ccccc1OC(C)C | 0.0 |
| COCC1=C(C(=O)OC(C)OC(=O)OC(C)C)N2C(=O)[C@@H](NC(=O)/C(=N\OC)c3csc(N)n3)[C@H]2SC1 (stereo partly drawn) | 0.0 |
| Cc1cc(O)c2c(c1)C(=O)c1cccc(O)c1C2=O | 0.0 |
| O=C1c2cccc(O)c2C(=O)c2c(O)cccc21 | 0.0 |

---

normalized growth by entry:
test-details: chemical genetic growth profiling, strain panel (AID 1159580);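 further: tested at 20 µM; growth read once vehicle control cultures reached saturation at 30 °C; 1 = growth at the plate median or of vehicle wells; lower values mean less growth of the strain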
experimental-context: S. cerevisiae deletion strains, growth OD, locus YDR502C, strain sam2, hits give low values
The campaign covered roughly 5,500 compounds. About 2,000 (36%) were called active. Another 18% or so got no clear call; they are omitted. Some of the results follow.
assay-readout: normalized growth

| molecule | assay-readout | measured |
| --- | --- | --- |
| O=c1c(O)c(-c2ccccc2)oc2ccccc12 | normalized growth | 1.01 |
| C[C@H]1C(=O)CCC2[C@]3(C)CC[C@@]4(C)C5CC(C)(C)CC[C@]5(C)CC[C@]4(C)C3CC[C@@]21C (some centres undefined) | normalized growth | 0.97 |
| CC[C@H]1OC(=O)[C@H](C)[C@@H](O[C@H]2C[C@@](C)(OC)[C@@H](O)[C@H](C)O2)[C@H](C)[C@@H](O[C@@H]2O[C@H](C)C[C@H](N(C)C)[C@H]2O)[C@](C)(O)C[C@@H](C)/C(=N/OCOCCOC)[C@H](C)[C@@H](O)[C@]1(C)O | normalized growth | 1.01 |
| O=C(O)c1cc(=O)c2ccccc2[nH]1 | normalized growth | 0.995 |

---

test-details: chemical genetic growth profiling, strain panel (AID 1159580);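 further: tested at 20 µM; growth read once vehicle control cultures reached saturation at 30 °C; 1 = growth at the plate median or of vehicle wells; lower values mean less growth of the strain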
experimental-context: S. cerevisiae deletion strains, growth OD, locus YKL085W, strain MDH1 (second series)
The whole screen tested about 5,500 compounds, of which about 2,000 (36%) were called active. Another 18% or so got no clear call; they are omitted. Cut-off read from the data, not from the text of the source: active = normalized growth mostly below about 0.91 (no sharp cut-off); inconclusive = no clear call, values can overlap the other calls; inactive = mostly above about 0.92. This is one part of the list.
Outcomes: True = active, False = inactive

| compound | discrete-label |
| --- | --- |
| O=C1C=CC(=O)c2c(O)cccc21 | False |
| CC1=C(C(=O)O)N2C(=O)[C@@H](NC(=O)[C@@H](N)c3ccc(O)cc3)[C@H]2SC1 | False |
| CC(C)N=C(N)N=C(N)Nc1ccc(Cl)cc1 | False |
| CC(C)N1C(=O)c2ccccc2NS1(=O)=O | False |
| O=C(O)c1cccnc1C(=O)O | False |
| CNC(=O)Oc1cccc2c1OC(C)(C)C2 | False |
| COC(=O)CC1C(C)(C)C(=O)C2CC3(O)C4=CC(=O)OC(c5ccoc5)C4(C)CCC3C1(C)C2=O (stereo not drawn) | False |
| CC(=O)Oc1c(C)c(C)c2c(c1C)CCC(C)(CCCC(C)CCCC(C)CCCC(C)C)O2 (stereo not drawn) | False |
| O=C1NS(=O)(=O)c2ccccc21 | False |
| CC(=O)O[C@@H]1C2CC[C@@H]3C1(C[C@@H](O)[C@@]1(O)[C@@H](C[C@H](O)C1(C)C)[C@]3(C)O)C[C@@]2(C)O (stereo partly drawn) | False |
| COc1ccc([C@@H](C)C(=O)c2ccc(O)cc2O)cc1 | False |
| CC(C)C1CCC(C(=O)N[C@@H](Cc2ccccc2)C(=O)O)CC1 (stereo partly drawn) | False |
| COC(=O)C[C@H]1C(C)(C)[C@H](O)[C@@H]2CC3=C4CC(O)O[C@@H](c5ccoc5)[C@]4(C)CCC3[C@@]1(C)C2=O (stereo partly drawn) | False |
| C[N+]12CCC(CC1)C(OC(=O)C(O)(c1ccccc1)c1ccccc1)C2 (stereo not drawn) | False |
| CNC(=O)Oc1ccccc1OC(C)C | False |
| CC(=O)OC1CCC2(O)CC1(C)CCC1C2CC1(C)C (stereo not drawn) | False |
| COC(=O)C(O)[C@H]1C(C)(C)[C@@H](OC(C)=O)[C@@H]2CC3=C4CC(=O)O[C@@H](c5ccoc5)[C@]4(C)CCC3[C@@]1(C)C2=O (stereo partly drawn) | False |
| NS(=O)(=O)c1cc2c(cc1Cl)NCNS2(=O)=O | False |
| COc1cc(Cc2cnc(N)nc2N)cc(OC)c1OC | False |
| CC1(C)CC23C(=O)CCC(O)C2(C)CCC13 (stereo not drawn) | False |
| O=C(Nc1ccc([N+](=O)[O-])cc1Cl)c1cc(Cl)ccc1O | False |
| CNC(=O)N(C)c1nnc(C(C)(C)C)s1 | False |
| Cc1cc(O)c2c(c1)C(=O)c1cccc(O)c1C2=O | False |
| Oc1cccc2cccnc12 | True |
| CC(=O)OC1CCC23CC1(C)CCC2C(C)(C)CC3OC(C)=O (stereo not drawn) | False |
| CC(=O)OCC1=C(C(=O)O)N2C(=O)[C@@H](NC(=O)CSc3ccncc3)[C@H]2SC1 | False |
| CCC[C@@H]1C[C@@H](C(=O)N[C@H]([C@H]2O[C@H](SC)[C@H](O)[C@@H](O)[C@H]2O)[C@H](C)O)N(C)C1 | False |
| CC(=O)NS(=O)(=O)c1ccc(N)cc1 | False |
| N[C@@H](C(=O)N[C@@H]1C(=O)N2C(C(=O)O)=C(Cl)CS[C@H]12)c1ccccc1 | False |
| O=C(/C=C/c1ccccc1)c1ccc(O[C@@H]2O[C@H](CO)[C@@H](O)[C@H](O)[C@H]2O)cc1O | True |
| COC(=O)c1cc(OC)c(=O)c2c(OC)c(OC)ccc2c1 | False |
| CC(C)[C@@H]1CC[C@@H](C)C[C@H]1OC(=O)c1ccccc1 | False |
| COc1ccccc1OCC(O)COC(N)=O (stereo not drawn) | False |
